# Tested on: U2OS
# test summary: Incucyte cell viability with U2OS; also: unitless GR value; below 1 slowed growth and below 0 cell loss
# Format: toxicity, cell-based
# condition description: human, 0 h, 10 µM, compound concentration 10 uM, replicate number 1
quantity kind: Growth Rate

* Fc1ccc(-c2nc(-c3c(F)cccc3F)[nH]c2-c2ccncc2)cc1 | -1
* CC(C)c1ccc(/C=N/NC(=O)c2ccc(O)cc2)cc1 | -0.47
* COCCNc1cc(NC(=O)N2CCCc3cc(CN4CCN(C)CC4=O)c(C=O)nc32)ncc1C#N | -0.62
* CC(=O)Oc1ccc2c(c1)[C@@]1(C)CCC[C@](C)(C(=O)OC(=O)[C@@]3(C)CCC[C@]4(C)c5cc(OC(C)=O)ccc5CC[C@@H]34)[C@@H]1CC2 [ACETYL PODOCARPIC ACID ANHYDRIDE] | -0.55
* Cc1c(CCC(=O)O)cccc1NC(=O)[C@@H](c1ccc(-c2cncc(Cl)c2)c(F)c1)C1CCCC1 | 0.68
* OC(c1ccc(-c2ccc(CN3CCN(Cc4ccncc4)CC3)cc2)c(F)c1)(C(F)(F)F)C(F)(F)F | 0.44
* N#Cc1ccc(C#CC[C@@H](C#N)NC(=O)[C@@H]2CCCCN2)cc1F | 0.67
* COC(=O)c1sccc1S(=O)(=O)Nc1ccc(Nc2ccccc2)cc1OC | -0.11
* O=C1CCCN1CCNc1nc(Nc2ccc(Cl)c(Cl)c2)ncc1C(F)(F)F | -1
* CN(C)CCCN1c2ccccc2Sc2ccc(Cl)cc21.Cl [CHLORPROMAZINE HYDROCHLORIDE] | -0.42
* COc1cc(-c2cc3ncccc3c(OC[C@H]3CNC(=O)C3)n2)cc(OC)c1OC1CCOCC1.O=C(O)C(F)(F)F | -0.63
* COC(=O)c1ccc2c(c1)NC(=O)/C2=C(\Nc1ccc(-c2nccn2C)cc1)c1ccccc1 | -1
* CCn1c(CNC(=O)c2nc(Cl)cnc2N)[n+](CC)c2ccc(C(=O)N(C)CCN(C)C)cc21.[Cl-] | 0.81

###

# System: U2OS
# test summary: Incucyte cell viability with U2OS; also: unitless GR value; below 1 slowed growth and below 0 cell loss
# Format: toxicity, cell-based
# condition description: human, 24 h, 10 µM, compound concentration 10 uM, replicate number 1
Examples of compounds with documented Growth Rate follow.
quantity kind: Growth Rate

• FC(F)(F)Oc1ccc(-c2ccc3nnc(C(F)(F)F)n3c2)cc1 = 0.91
• COc1cc(N[C@@H]2CCCC[C@]2(O)C(F)(F)F)ccc1F [BAY-9897] = 0.88
• CNS(=O)(=O)c1ccc(N(C)C)c(Nc2ncnc3cc(OC)c(OC)cc23)c1 = 0.8
• COc1cc(Cl)c(C(=O)N[C@@H](CN[C@H]2CC[C@@H](N)CC2)Cc2ccc(C#N)cc2)cc1-c1ccc(CN[C@H](C)c2ccc(C)cc2)o1 = -0.74
• Cc1cc(Nc2ncc(Cl)c(Nc3ccccc3S(=O)(=O)C(C)C)n2)c(OC(C)C)cc1C1CCNCC1 [CERITINIB] = -0.57
• CCN1C(=O)C(c2cccc(C(=O)O)c2)C(=O)N(c2ccccc2)c2cc(C(F)(F)F)ccc21 (stereo not drawn) = 0.88
• CCOC(=O)c1cnn(-c2ccc(NC(=O)C(Cl)=C(Cl)Cl)cc2)c1C(F)(F)F = -0.43
• Cc1cccc(CC(=O)N2CCc3c2ccc(-c2cn(C)c4ncnc(N)c24)c3F)n1 = 0.59
• O=C(O)c1ccc(OCCCc2ccc(OCCCCOC3CCCCC3)cc2)c(C(=O)NC2CCCC(C(=O)O)C2)c1 (stereo not drawn) = 0.89
• O=c1ccc2c(OCCCCOc3ccccc3)c3ccoc3cc2o1 = 0.92
• O=C1CCC(N2Cc3cc(CNC(=O)C(F)(F)c4ccc(Cl)cc4)ccc3C2=O)C(=O)N1 (stereo not drawn) = 0.99
• Cl.O=C(O)CCCN1CCC[C@H]1COc1ccc(Oc2ccc(Cl)cc2)cc1 = 0.94
• Cc1onc(-c2ccc(F)cc2)c1COc1ccc(C(=O)N2CCS(=O)(=O)CC2)cn1 [BASMISANIL] = 0.86
• O=C(Nc1ccc(Cl)c(-c2ccccn2)c1)c1cccc(COc2ccc(Br)cc2CNCCO)c1.O=CO = 0.53
• C[C@@H]1CC[C@@]2(OC1)O[C@H]1[C@@H](O)[C@H]3[C@@H]4CC[C@H]5C[C@@H](O[C@@H]6O[C@H](CO)[C@H](O[C@@H]7O[C@H](CO)C(O)[C@H](O[C@@H]8OC[C@@H](O)[C@H](O)[C@H]8O)[C@H]7O[C@@H]7O[C@H](CO)[C@H](O)[C@H](O[C@@H]8O[C@H](CO)[C@@H](O)[C@H](O)[C@H]8O)[C@H]7O)[C@H](O)[C@H]6O)[C@H](O)C[C@]5(C)[C@H]4CC[C@]3(C)[C@H]1[C@@H]2C (stereo partly drawn) [DIGITONIN] = 1
• COC[C@@H](CC(C)C)NC1=N/C(=C\c2ccc3ncsc3c2)C(=O)N1C = 0.37
• O=C(N[C@H](Cc1ccccc1)C(=O)O)c1cccc(OCc2cccnc2)c1.O=CO = 0.8
• NCC1CCC(CNc2nc(NCc3ccccc3OC(F)(F)F)ncc2[N+](=O)[O-])CC1 (stereo not drawn) = 0.84

###

# Test system: U2OS
# test summary: Incucyte cell viability with U2OS; also: unitless GR value; below 1 slowed growth and below 0 cell loss
# Type: toxicity, cell-based
# condition description: human, 24 h, 10 µM, compound concentration 10 uM, replicate number 1
Numbered stars: 1 amine (or outer) side, 2 acyl side, 3 side chain; on linkers, the order of the positions; unused ones are H or OH. Bridge positions count the residues as written; N and C are the ends. Square brackets hold non-standard residues; d marks the D form. Peptide text beside a SMILES is read from it. I, II: the chains in the order shown. Hexamethylenediamine = C(CCCN[*:2])CCN[*:1]; Dip = N[C@H](C(=O)O)C(c1ccccc1)c1ccccc1; Chg = N[C@H](C(=O)O)C1CCCCC1; NMeA = CN[C@@H](C)C(=O)O
Listed below: Growth Rate values for each entry.
quantity kind: Growth Rate

- COCCN1CCN(CCn2ccc(Nc3ncc4c(n3)-c3c(nn(C)c3-c3ccccc3)C[C@H]4C)n2)CC1: 0.85
- O=C(Nc1c[nH]nc1-c1nc2cc(CN3CCOCC3)ccc2[nH]1)NC1CC1 [AT-9283]: -0.18
- COc1cc(Oc2nc(-c3ccc(NC(=O)C4CCOC4)cc3)nn3c(C)nc(C)c23)cc(OC)c1OC (stereo not drawn): 0.87
- CCOC(=O)c1ncn2c1[C@@H]1CCCN1C(=O)c1cc(OC)ccc1-2: 0.81
- CN[C@@H](C)C(=O)N[C@H](C(=O)N1CCC[C@H]1C(=O)N[C@H](C(=O)NCCCCCCNC(=O)[C@@H](NC(=O)[C@@H]1CCCN1C(=O)[C@@H](NC(=O)[C@H](C)NC)C1CCCCC1)C(c1ccccc1)c1ccccc1)C(c1ccccc1)c1ccccc1)C1CCCCC1 (I: H-[NMeA][Chg]P[Dip] / II: H-[NMeA][Chg]P[Dip]; linker I:C-II:C via Hexamethylenediamine): -0.22
- CCOC(=O)c1cc2cc(-c3cc(C(=O)NCc4ccc(C(=O)O)cc4)nn3C)ccc2[nH]1 [BI 4394]: 0.96
- C[C@@H]1Cc2c([nH]c3ccccc23)[C@@H](c2c(F)cc(/C=C/C(=O)O)cc2F)N1CC(C)(C)F [AZD-9496]: 0.91
- Cl.Cl.NC1(c2ccc(-c3nc4ccn5c(=O)[nH]nc5c4cc3-c3ccccc3)cc2)CCC1: 1
- CCc1c(-c2ccc3[nH]ncc3c2)cnc(N)c1-c1ccc(O)cc1: 0.92
- COc1cc(-c2cn(C)c(=O)c3cnccc23)cc(OC)c1CN(C)C: 0.97
- Cc1n[nH]c2ncc(C(=O)N3CCC[C@H]3c3ccc(Cl)cc3)cc12: 0.91
- Nc1ncnc2c1c(COc1cccc(Cl)c1)nn2C1CCOCC1: 0.83
- COc1ccc(F)c(F)c1C(=O)c1cnc(NC2CCN(S(C)(=O)=O)CC2)nc1N [RG-547]: 0.06
- C[C@@H]1OCC2(CCN(c3cnc(Sc4ccnc(N)c4Cl)c(N)n3)CC2)[C@@H]1N [BATOPROTAFIB]: 0.69
- COc1cc2nc(C)nc(NC3(c4ccccc4)CC3)c2cc1OC: 0.86
- COc1cc2c(cc1CC=C(C)C)C(=O)C[C@@H](c1ccc(O)cc1)O2 [BAVACHININ A]: 0.73
- Cl.NCC(O)c1ccc(O)cc1 (stereo not drawn) [OCTOPAMINE HYDROCHLORIDE]: 0.97
- COc1cc(-c2cc3ncccc3c(O[C@H](C)[C@H]3CNC(=O)C3)n2)cc(OC)c1OC.Cl: 0.78
- Cc1nc(Nc2cnn(C3CCNCC3)c2)nc2c1N(C)C(=O)c1cc3ccccc3cc1N2C: 0.58
- CCOCCn1cc(C(=O)Nc2ccc(-n3nc(-c4cccnc4)cc3C(F)(F)F)cn2)ccc1=O [BI 1935]: 0.66
- NC(=O)c1ccc(-c2nc(-c3ccc4c(c3)OCCO4)c(-c3ccccn3)[nH]2)cc1: 0.5
- CC(=O)N1CCC(c2ccc(C(=O)NC(=N)N)cc2C(F)(F)F)CC1 [BI 9627]: 1
- CCc1ncnc(N2CCN(C(C)=O)CC2)c1C#Cc1ccc(N)nc1.Cl.Cl: 0.7
- CC(C)S(=O)(=O)c1ccccc1Nc1nc(N[C@@H]2CCCN(CCCCCCCNC(=O)COc3cccc4c3C(=O)N(C3CCC(=O)NC3=O)C4=O)C2)ncc1Cl (stereo partly drawn): -0.23
- C[C@H](CCC(=O)O)[C@H]1CC[C@H]2[C@@H]3CC[C@@H]4C[C@H](O)CC[C@]4(C)[C@H]3C[C@H](O)[C@]12C [DEOXYCHOLIC ACID]: 0.86
- Cn1c2ccccc2c2c3c(c4c5ccccc5n(CCC#N)c4c21)CNC3=O [GO-6976]: 0.17
- Cc1ccccc1Oc1cc(-n2c(=O)cc(C(F)(F)F)[nH]c2=O)c2ccccc2c1Cl [BAY-069]: 0.81
- O=C1NCc2ccc3c(-c4cccc(Cl)c4)c[nH]c3c21: -0.1
- Cc1cc(=O)oc2cc(NC(=O)[C@H](Cc3ccc(I)cc3)NC(=O)[C@H]3N[C@@H]4CC[C@H]3C4)ccc12.O=C(O)C(F)(F)F: 0.88
- CNCc1ccc(-c2cc(-c3nc(-c4ccc(S(=O)(=O)C(C)C)cc4)cnc3N)on2)cc1 [BERZOSERTIB]: 0.31
- CC(=O)Nc1c(F)cc(C(=O)N[C@H]2CC[C@H](O)CC2)cc1O[C@@H](C)c1ccccc1 [GSK046]: 0.83
- C=C[C@H]1C[N@@]2CC[C@H]1C[C@@H]2[C@@H](O)c1ccnc2ccc(OC)cc12 [QUINIDINE]: 0.96
- COc1ccc(-c2coc3cc(O)cc(O)c3c2=O)cc1 [BIOCHANIN]: 0.95
